- target under test: A2B receptors (Homo sapiens, UniProt P29275)
- Sequence (P29275 whole entry): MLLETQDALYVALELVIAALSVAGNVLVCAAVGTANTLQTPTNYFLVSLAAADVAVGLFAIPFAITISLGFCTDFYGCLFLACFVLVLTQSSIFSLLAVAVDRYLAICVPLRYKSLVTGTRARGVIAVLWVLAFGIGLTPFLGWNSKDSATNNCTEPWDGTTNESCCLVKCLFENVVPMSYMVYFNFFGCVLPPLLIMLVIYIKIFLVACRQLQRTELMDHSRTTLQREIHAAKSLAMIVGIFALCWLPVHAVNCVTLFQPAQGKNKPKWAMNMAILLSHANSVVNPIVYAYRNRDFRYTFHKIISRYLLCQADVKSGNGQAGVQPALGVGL
experimental endpoint: Ki (nM)
The figure you give is taken to be in nM; do not add the unit.

Problem: Query: Ki; subject: Cc1cc(Cn2ncc3c(-c4cccc(C#N)c4F)nc(N)nc32)ccc1N [11o]
Solution: 400

###

- assay: pharmacokinetics and brain/plasma ratio in mouse brain
- Type: in vivo, Crl:CD-1 mice
- stated conditions: male, Crl:CD-1; mouse brain; 3 mg/kg PO
experimental endpoint: AUC(0-t)
Answer with the figure and its unit, nothing else.

Problem: Using the record for Cc1cc(Cn2ncc3c(-c4cccc(C#N)c4F)nc(N)nc32)ccc1N [11o] , report its AUC(0-t).
Solution: 56.4 ng·h/mL

###

- assay: pharmacokinetics and brain/plasma ratio in mouse brain
- Type: in vivo, Crl:CD-1 mice
- stated conditions: male, Crl:CD-1; mouse brain; 10 mg/kg PO
experimental endpoint: half-life
The reply should consist of the numeric value with the unit placed after it.

Problem: Find the recorded half-life belonging to Cc1cc(Cn2ncc3c(-c4cccc(C#N)c4F)nc(N)nc32)ccc1N [11o] and report it.
Solution: 7.71 h

###

- assay: metabolic stability in cryopreserved mouse hepatocytes
- stated conditions: CD-1, mouse, cryopreserved hepatocytes in suspension
experimental endpoint: hepatocyte CLint at 1 μM (µL/min/1e6 cells)
Please state the figure in µL/min/1e6 cells; there is no need to write the unit.

Problem: Using the record for Cc1cc(Cn2ncc3c(-c4cccc(C#N)c4F)nc(N)nc32)ccc1N [11o] , report its hepatocyte CLint at 1 μM.
Solution: 9.8

###

- assay: pharmacokinetics and brain/plasma ratio in mouse brain
- Type: in vivo, Crl:CD-1 mice
- stated conditions: male, Crl:CD-1, inhaled or intranasal; mouse brain; 1 mg/kg IN
experimental endpoint: AUC(0-t)

Problem: Could you tell me which AUC(0-t) is on file for Cc1cc(Cn2ncc3c(-c4cccc(C#N)c4F)nc(N)nc32)ccc1N [11o] ?
Solution: 5.23 ng·h/mL

###

- assay: pharmacokinetics and bioavailability in mouse plasma
- Format: in vivo, Crl:CD-1 mice
- stated conditions: male, Crl:CD-1, mouse, plasma, iv, 1 mg/kg, mouse plasma; 1 mg/kg IV; read-out: Cmax
experimental endpoint: Cmax (ng/mL)
// return numeric value only (unit: ng/mL, not printed)

Problem: Would you mind telling me what Cmax value was observed for Cc1cc(Cn2ncc3c(-c4cccc(C#N)c4F)nc(N)nc32)ccc1N [11o] ?
Solution: 459

###

- target under test: A2A adenosine receptor (Homo sapiens, UniProt P29274)
- Sequence (P29274 whole entry): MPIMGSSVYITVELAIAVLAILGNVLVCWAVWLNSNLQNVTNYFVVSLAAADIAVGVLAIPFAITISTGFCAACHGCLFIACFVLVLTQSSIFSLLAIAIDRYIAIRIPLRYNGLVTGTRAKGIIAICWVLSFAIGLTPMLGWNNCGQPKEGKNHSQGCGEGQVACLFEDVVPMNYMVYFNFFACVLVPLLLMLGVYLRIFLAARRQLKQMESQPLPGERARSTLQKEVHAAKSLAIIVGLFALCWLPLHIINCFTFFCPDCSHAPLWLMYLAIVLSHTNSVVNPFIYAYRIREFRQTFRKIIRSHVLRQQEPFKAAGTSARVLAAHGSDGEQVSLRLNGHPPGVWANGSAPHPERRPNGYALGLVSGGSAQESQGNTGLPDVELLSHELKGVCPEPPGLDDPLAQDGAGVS
- assay: cyclic AMP HTRF functional assay, HEK-293 (A2A)
- stated conditions: HEK-293 cells; read-out: IC50, A2A functional antagonism (c-AMP)
experimental endpoint: pIC50
Notebook: values listed as pIC50 are -log10 of the concentration (mol/L).

Problem: Dear colleague, I am looking for the recorded pIC50 of the following molecule: Cc1cc(Cn2ncc3c(-c4cccc(C#N)c4F)nc(N)nc32)ccc1N [11o]
Solution: 6.87

###

- assay: pharmacokinetics and brain/plasma ratio in mouse brain
- Type: in vivo, Crl:CD-1 mice
- stated conditions: male, Crl:CD-1, brain/plasma; mouse; PO 1, 3 and 10 mg/kg; read-out: B/P ratio, PO dosing groups
- Experimental: Male Crl:CD-1 mice of 9~10 weeks of age were purchased from Charles River Laboratories, USA and maintained at standard food and water ad libitum in temperature-controlled room with 12 h on-off light cycle before the experiment. […] Resulting plasma were stored in a freezer set to maintain −70 °C until analyzed for 11o concentration. […] Dose proportionality was assessed, and bioavailability was calculated for PO dosing.
experimental endpoint: Kp

Problem: What value of Kp has been recorded for this entry: Cc1cc(Cn2ncc3c(-c4cccc(C#N)c4F)nc(N)nc32)ccc1N [11o]
Solution: 0.0242 to 0.167

Hey, just so you know, these numbers are from paper PMC9394284.
